This collection of values is drawn from patent US8715745B2.

Below, each of the compounds is paired with its reported % Inhn Plus copper Predicted value.
# Test system: Phytophthora capsici
# assay-procedure: In vitro fungitoxicity (growth inhibition) against Phytophthora capsici in copper-minus AS and copper-plus AS medium
# Type: cell-based
# cond: 0.050 μg/mL, Colby formula
Kindly answer with a numeric value in %, unit omitted.

Some solved cases for reference:
O=C(N/N=C/c1cccc(Cl)c1O)c1cccc(Cl)c1	13.2
O=C(N/N=C/c1c(Cl)ccc(Cl)c1O)c1cccc(Cl)c1	4.5

q: Tell me % Inhn Plus copper Predicted reported for "O=C(N/N=C/c1c(O)cccc1Cl)c1ccc([N+](=O)[O-])cc1"
a: 5.1

q: Indicate the recorded % Inhn Plus copper Predicted value for this compound: "Cc1ccc(C(=O)N/N=C/c2ccc(Cl)c(Cl)c2O)c(O)c1"
a: 4.5
